system: VA-ES-BJ tumor spheroid viability; assay: Anticancer human tumor VA-ES-BJ cell line growth inhibition; conditions: second compound 0.003 µM; first compound 3.16 µM; active compounds read low; spheroids with HUVEC and MSC;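 further: spheroids exposed to compounds for seven days; percent of DMSO vehicle control viability so 100% = untreated growth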
property.measured: viability, T/C (%)
A number alone suffices; assume %.

Example cases with answers are listed next.
[[record]]
molecule = "COc1cc(C)[nH]c(=O)c1CN1CCc2c(Cl)cc(C(OC)C3COC3)c(Cl)c2C1=O (configuration not stated) + CC[C@@]1(O)C(=O)OCc2c1cc1n(c2=O)Cc2cc3c(CN(C)C)c(O)ccc3nc2-1"
measurement = 54.9

[[record]]
molecule = "CC1COCCN1c1cc(-c2ccnn2C)c2ccnc(-c3ccn[nH]3)c2n1 (configuration not stated) + COc1cc2c(cc1O)CCNC21CSC2c3c(OC(C)=O)c(C)c4c(c3C(COC1=O)N1C(O)C3Cc5cc(C)c(OC)c(O)c5C(C21)N3C)OCO4"
measurement = 0.35

[[record]]
molecule = "Cc1cc(C)c(CNC(=O)c2cc(-c3ccc(CN4CCOCC4)cc3)cc3c2cnn3C2CCCC2)c(=O)[nH]1 + COc1cc2c(cc1O)CCNC21CSC2c3c(OC(C)=O)c(C)c4c(c3C(COC1=O)N1C(O)C3Cc5cc(C)c(OC)c(O)c5C(C21)N3C)OCO4"
measurement = 1.92

[[record]]
molecule = "COc1cc(C)[nH]c(=O)c1CN1CCc2c(Cl)cc(C(OC)C3COC3)c(Cl)c2C1=O (configuration not stated) + COc1cc2c(cc1O)CCNC21CSC2c3c(OC(C)=O)c(C)c4c(c3C(COC1=O)N1C(O)C3Cc5cc(C)c(OC)c(O)c5C(C21)N3C)OCO4"
measurement = 1.1

[[record]]
molecule = "CC(C)n1c(=O)n(C)c2cnc3cc(F)c(-c4ccc(OCCCN5CCCCC5)nc4)cc3c21 + COc1cc2c(cc1O)CCNC21CSC2c3c(OC(C)=O)c(C)c4c(c3C(COC1=O)N1C(O)C3Cc5cc(C)c(OC)c(O)c5C(C21)N3C)OCO4"
measurement = 0.45


Task: Supply measured viability, T/C of [2H]c1nc(C)nc([2H])c1-c1cc(NC[C@@H](C)c2cccc3c(C(=O)NC)ccnc23)ncn1 + CC[C@@]1(O)C(=O)OCc2c1cc1n(c2=O)Cc2cc3c(CN(C)C)c(O)ccc3nc2-1 in your reply.
Result: 105

Task: Supply measured viability, T/C of [2H]c1nc(C)nc([2H])c1-c1cc(NC[C@@H](C)c2cccc3c(C(=O)NC)ccnc23)ncn1 + COc1cc2c(cc1O)CCNC21CSC2c3c(OC(C)=O)c(C)c4c(c3C(COC1=O)N1C(O)C3Cc5cc(C)c(OC)c(O)c5C(C21)N3C)OCO4 in your reply.
Result: 1.28

Task: Supply measured viability, T/C of COc1ccc([C@@H](O)c2cc(-c3ncnc4cc(N5CCOCC5)ccc34)c(F)cc2Cl)nn1 + CC[C@@]1(O)C(=O)OCc2c1cc1n(c2=O)Cc2cc3c(CN(C)C)c(O)ccc3nc2-1 in your reply.
Result: 19.9

Task: Supply measured viability, T/C of COc1ccc([C@@H](O)c2cc(-c3ncnc4cc(N5CCOCC5)ccc34)c(F)cc2Cl)nn1 + COc1cc2c(cc1O)CCNC21CSC2c3c(OC(C)=O)c(C)c4c(c3C(COC1=O)N1C(O)C3Cc5cc(C)c(OC)c(O)c5C(C21)N3C)OCO4 in your reply.
Result: 5.13

Task: Supply measured viability, T/C of CC1COCCN1c1cc(-c2ccnn2C)c2ccnc(-c3ccn[nH]3)c2n1 (configuration not stated) + CC[C@@]1(O)C(=O)OCc2c1cc1n(c2=O)Cc2cc3c(CN(C)C)c(O)ccc3nc2-1 in your reply.
Result: 6.47

Task: Supply measured viability, T/C of CC(C)n1c(=O)n(C)c2cnc3cc(F)c(-c4ccc(OCCCN5CCCCC5)nc4)cc3c21 + CC[C@@]1(O)C(=O)OCc2c1cc1n(c2=O)Cc2cc3c(CN(C)C)c(O)ccc3nc2-1 in your reply.
Result: 54.7

Task: Supply measured viability, T/C of Cc1cc(C)c(CNC(=O)c2cc(-c3ccc(CN4CCOCC4)cc3)cc3c2cnn3C2CCCC2)c(=O)[nH]1 + CC[C@@]1(O)C(=O)OCc2c1cc1n(c2=O)Cc2cc3c(CN(C)C)c(O)ccc3nc2-1 in your reply.
Result: 103

----------
Tested on: VA-ES-BJ tumor spheroid viability
Assay: Anticancer human tumor VA-ES-BJ cell line growth inhibition; active means viability on the fitted dose curve at most 10% of control; inactive means the rest;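 further: spheroids exposed to compounds for seven days; percent of DMSO vehicle control viability so 100% = untreated growth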
Conditions: second compound 0.0003 µM; first compound 0.316 µM; spheroids with HUVEC and MSC
Procedure: Multicellular complex tumor spheroid response to DNA repair inhibitors in combination with DNA-damaging drugs This study explores the anticancer activities of DNA-damaging drugs and inhibitors of DNA damage repair, both as single agents and in combinations. […] Twenty-six patient-derived or established malignant cell lines were evaluated representing sarcoma, melanoma, small cell lung cancer (SCLC), non-small cell lung cancer (NSCLC), as well as bladder, ovarian and pancreatic cancers. […]
Choose the fitting class; nothing outside class 1 for active, class 0 for inactive is accepted.

These recorded examples may help you get a feel for the data.
[[record]]
compound = "COc1cc(C)[nH]c(=O)c1CN1CCc2c(Cl)cc(C(OC)C3COC3)c(Cl)c2C1=O (stereo unspecified) + COc1cc2c(cc1O)CCNC21CSC2c3c(OC(C)=O)c(C)c4c(c3C(COC1=O)N1C(O)C3Cc5cc(C)c(OC)c(O)c5C(C21)N3C)OCO4"
assigned_label = "class 0"

[[record]]
compound = "CC1COCCN1c1cc(-c2ccnn2C)c2ccnc(-c3ccn[nH]3)c2n1 (stereo unspecified) + COc1cc2c(cc1O)CCNC21CSC2c3c(OC(C)=O)c(C)c4c(c3C(COC1=O)N1C(O)C3Cc5cc(C)c(OC)c(O)c5C(C21)N3C)OCO4"
assigned_label = "class 1"

[[record]]
compound = "COc1ccc([C@@H](O)c2cc(-c3ncnc4cc(N5CCOCC5)ccc34)c(F)cc2Cl)nn1 + COc1cc2c(cc1O)CCNC21CSC2c3c(OC(C)=O)c(C)c4c(c3C(COC1=O)N1C(O)C3Cc5cc(C)c(OC)c(O)c5C(C21)N3C)OCO4"
assigned_label = "class 0"

[[record]]
compound = "[2H]c1nc(C)nc([2H])c1-c1cc(NC[C@@H](C)c2cccc3c(C(=O)NC)ccnc23)ncn1 + COc1cc2c(cc1O)CCNC21CSC2c3c(OC(C)=O)c(C)c4c(c3C(COC1=O)N1C(O)C3Cc5cc(C)c(OC)c(O)c5C(C21)N3C)OCO4"
assigned_label = "class 0"

[[record]]
compound = "CC(C)n1c(=O)n(C)c2cnc3cc(F)c(-c4ccc(OCCCN5CCCCC5)nc4)cc3c21 + COc1cc2c(cc1O)CCNC21CSC2c3c(OC(C)=O)c(C)c4c(c3C(COC1=O)N1C(O)C3Cc5cc(C)c(OC)c(O)c5C(C21)N3C)OCO4"
assigned_label = "class 0"


Task: Hi, sorry to bother you, what did the test record for Cc1cc(C)c(CNC(=O)c2cc(-c3ccc(CN4CCOCC4)cc3)cc3c2cnn3C2CCCC2)c(=O)[nH]1 + COc1cc2c(cc1O)CCNC21CSC2c3c(OC(C)=O)c(C)c4c(c3C(COC1=O)N1C(O)C3Cc5cc(C)c(OC)c(O)c5C(C21)N3C)OCO4 ?
Result: class 0

----------
test system: VA-ES-BJ tumor spheroid viability; experiment: Anticancer human tumor VA-ES-BJ cell line growth inhibition; settings: second compound 3.16 µM; first compound 1 µM; active compounds read low; spheroids with HUVEC and MSC;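 further: spheroids exposed to compounds for seven days; percent of DMSO vehicle control viability so 100% = untreated growth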
The label 1 is reserved for viability, T/C strictly under 60%; -1 covers values equal to or above it.

These recorded examples may help you get a feel for the data.
[[record]]
compound = "COc1ccc([C@@H](O)c2cc(-c3ncnc4cc(N5CCOCC5)ccc34)c(F)cc2Cl)nn1 + Cn1nnc2c(C(N)=O)ncn2c1=O"
assigned_label = 1

[[record]]
compound = "CC1COCCN1c1cc(-c2ccnn2C)c2ccnc(-c3ccn[nH]3)c2n1 (stereo unspecified) + Cn1nnc2c(C(N)=O)ncn2c1=O"
assigned_label = 1

[[record]]
compound = "[2H]c1nc(C)nc([2H])c1-c1cc(NC[C@@H](C)c2cccc3c(C(=O)NC)ccnc23)ncn1 + Cn1nnc2c(C(N)=O)ncn2c1=O"
assigned_label = -1

[[record]]
compound = "Cc1cc(C)c(CNC(=O)c2cc(-c3ccc(CN4CCOCC4)cc3)cc3c2cnn3C2CCCC2)c(=O)[nH]1 + Cn1nnc2c(C(N)=O)ncn2c1=O"
assigned_label = -1


Proceed to the following item.
Task: Is viability, T/C of CC(C)n1c(=O)n(C)c2cnc3cc(F)c(-c4ccc(OCCCN5CCCCC5)nc4)cc3c21 + Cn1nnc2c(C(N)=O)ncn2c1=O strictly below 60%?
Result: -1

----------
test system: VA-ES-BJ tumor spheroid viability; assay: Anticancer human tumor VA-ES-BJ cell line growth inhibition; settings: second compound 10 µM; first compound 1 µM; active compounds read low; spheroids with HUVEC and MSC;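 further: spheroids exposed to compounds for seven days; percent of DMSO vehicle control viability so 100% = untreated growth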
property.measured: viability, T/C (%)
A number alone suffices; assume %.

[[record]]
molecule = "CC1COCCN1c1cc(-c2ccnn2C)c2ccnc(-c3ccn[nH]3)c2n1 (stereo not drawn) + Cn1nnc2c(C(N)=O)ncn2c1=O"
property_measured = "viability, T/C"
measurement = 8.47

[[record]]
molecule = "COc1ccc([C@@H](O)c2cc(-c3ncnc4cc(N5CCOCC5)ccc34)c(F)cc2Cl)nn1 + Cn1nnc2c(C(N)=O)ncn2c1=O"
property_measured = "viability, T/C"
measurement = 41.5


Task: Report value only: viability, T/C, VA-ES-BJ tumor spheroid viability, COc1cc(C)[nH]c(=O)c1CN1CCc2c(Cl)cc(C(OC)C3COC3)c(Cl)c2C1=O (stereo not drawn) + Cn1nnc2c(C(N)=O)ncn2c1=O
Result: 58.4
